tested on: dengue virus type 1; test: Activity of dengue virus 1 recombinant NS3 protease expressed in Escherichia coli C41(DE3) by fluorogenic assay
Non-standard residues stand in square brackets, D forms with d. Residues, ends and D or L forms follow the SMILES beside them. Tyr(3-NO2) = N[C@@H](Cc1ccc(O)c([N+](=O)[O-])c1)C(=O)O; 2Abz = Nc1ccccc1C(=O)O
readoutType: Km (µM)

I: NC(=O)C[C@H](NC(=O)CNC(=O)[C@H](Cc1cnc[nH]1)NC(=O)[C@H](Cc1cnc[nH]1)NC(=O)c1ccccc1N)C(=O)N[C@@H](Cc1ccc(O)c([N+](=O)[O-])c1)C(N)=O (H-[2Abz]HHGN[Tyr(3-NO2)]-NH2)
II: CC(C)[C@H](NC(=O)[C@H](CC(=O)O)NC(=O)[C@H](CC(N)=O)NC(=O)c1ccccc1N)C(=O)N[C@@H](CC(=O)O)C(=O)N[C@@H](Cc1ccc(O)c([N+](=O)[O-])c1)C(N)=O (H-[2Abz]NDVD[Tyr(3-NO2)]-NH2)
Query: I or II : whose Km is greater? Write the label of whichever entry you select.
Result: II

====

test system: dengue virus type 4; experiment: Activity of dengue virus 4 recombinant NS3 protease expressed in Escherichia coli C41(DE3) by fluorogenic assay
Non-standard residues stand in square brackets, D forms with d. Residues, ends and D or L forms follow the SMILES beside them. Tyr(3-NO2) = N[C@@H](Cc1ccc(O)c([N+](=O)[O-])c1)C(=O)O; 2Abz = Nc1ccccc1C(=O)O
readoutType: Km (µM)

[
  {
    "molecule": "C[C@H](NC(=O)c1ccccc1N)C(=O)N1CCC[C@H]1C(=O)N[C@@H](CS)C(=O)N[C@@H](CC(N)=O)C(=O)N[C@@H](Cc1ccc(O)c([N+](=O)[O-])c1)C(N)=O (H-[2Abz]APCN[Tyr(3-NO2)]-NH2)",
    "Km, µM": 4.94
  }
]

I: CC(C)[C@H](NC(=O)CNC(=O)[C@H](CO)NC(=O)c1ccccc1N)C(=O)N[C@@H](CS)C(=O)N[C@@H](Cc1ccc(O)c([N+](=O)[O-])c1)C(N)=O (H-[2Abz]SGVC[Tyr(3-NO2)]-NH2)
II: NC(=O)[C@H](Cc1ccc(O)c([N+](=O)[O-])c1)NC(=O)[C@H](CS)NC(=O)CNC(=O)[C@H](Cc1c[nH]c2ccccc12)NC(=O)[C@H](CO)NC(=O)c1ccccc1N (H-[2Abz]SWGC[Tyr(3-NO2)]-NH2)
Query: For the pair I and II , which member has the lower Km number? // return label of chosen record
Result: II
(II: 4.79 µM, I: 7.06 µM)

====

test system: dengue virus type 2; experiment: Activity of dengue virus 2 recombinant NS3 protease expressed in Escherichia coli C41(DE3) by fluorogenic assay
Non-standard residues stand in square brackets, D forms with d. Residues, ends and D or L forms follow the SMILES beside them. Tyr(3-NO2) = N[C@@H](Cc1ccc(O)c([N+](=O)[O-])c1)C(=O)O; 2Abz = Nc1ccccc1C(=O)O
readoutType: kcat (s⁻¹)

[
  {
    "compound": "CC(C)[C@H](NC(=O)[C@@H](NC(=O)CNC(=O)c1ccccc1N)[C@@H](C)O)C(=O)N[C@@H](CC(N)=O)C(=O)N[C@@H](Cc1ccc(O)c([N+](=O)[O-])c1)C(N)=O (H-[2Abz]GTVN[Tyr(3-NO2)]-NH2)",
    "measuredOn": "dengue virus type 2",
    "readoutUnit": "s⁻¹",
    "result": 0.0055
  },
  {
    "compound": "C[C@H](NC(=O)c1ccccc1N)C(=O)NCC(=O)N1CCC[C@H]1C(=O)N[C@@H](CC(N)=O)C(=O)N[C@@H](Cc1ccc(O)c([N+](=O)[O-])c1)C(N)=O (H-[2Abz]AGPN[Tyr(3-NO2)]-NH2)",
    "measuredOn": "dengue virus type 2",
    "readoutUnit": "s⁻¹",
    "result": 0.00683
  },
  {
    "compound": "CC(C)C[C@H](NC(=O)[C@@H](NC(=O)CNC(=O)[C@H](C)NC(=O)c1ccccc1N)C(C)C)C(=O)N[C@@H](Cc1ccc(O)c([N+](=O)[O-])c1)C(N)=O (H-[2Abz]AGVL[Tyr(3-NO2)]-NH2)",
    "measuredOn": "dengue virus type 2",
    "readoutUnit": "s⁻¹",
    "result": 0.00567
  },
  {
    "compound": "CC(C)[C@H](NC(=O)[C@H](CC(=O)O)NC(=O)[C@H](CC(N)=O)NC(=O)c1ccccc1N)C(=O)N[C@@H](CC(=O)O)C(=O)N[C@@H](Cc1ccc(O)c([N+](=O)[O-])c1)C(N)=O (H-[2Abz]NDVD[Tyr(3-NO2)]-NH2)",
    "measuredOn": "dengue virus type 2",
    "readoutUnit": "s⁻¹",
    "result": 0.00167
  },
  {
    "compound": "C[C@H](NC(=O)c1ccccc1N)C(=O)N1CCC[C@H]1C(=O)NCC(=O)N[C@@H](CC(=O)O)C(=O)N[C@@H](Cc1ccc(O)c([N+](=O)[O-])c1)C(N)=O (H-[2Abz]APGD[Tyr(3-NO2)]-NH2)",
    "measuredOn": "dengue virus type 2",
    "readoutUnit": "s⁻¹",
    "result": 0.000667
  },
  {
    "compound": "NC(=O)C[C@H](NC(=O)[C@H](Cc1cnc[nH]1)NC(=O)c1ccccc1N)C(=O)N[C@@H](CS)C(=O)N[C@@H](CS)C(=O)N[C@@H](Cc1ccc(O)c([N+](=O)[O-])c1)C(N)=O (H-[2Abz]HNCC[Tyr(3-NO2)]-NH2)",
    "measuredOn": "dengue virus type 2",
    "readoutUnit": "s⁻¹",
    "result": 0.00233
  }
]

P: C[C@@H](O)[C@H](NC(=O)[C@H](Cc1c[nH]c2ccccc12)NC(=O)[C@H](CC(N)=O)NC(=O)c1ccccc1N)C(=O)N[C@@H](CC(N)=O)C(=O)N[C@@H](Cc1ccc(O)c([N+](=O)[O-])c1)C(N)=O (H-[2Abz]NWTN[Tyr(3-NO2)]-NH2)
Q: NC(=O)[C@H](Cc1ccc(O)c([N+](=O)[O-])c1)NC(=O)[C@H](CC(=O)O)NC(=O)[C@H](CS)NC(=O)[C@H](Cc1cnc[nH]1)NC(=O)[C@H](CO)NC(=O)c1ccccc1N (H-[2Abz]SHCD[Tyr(3-NO2)]-NH2)
Query: // max by kcat over [ P , Q ] Reply with the label of the item you choose.
Result: Q

====

system: dengue virus type 2; experiment: Activity of dengue virus 2 recombinant NS3 protease expressed in Escherichia coli C41(DE3) by fluorogenic assay
Non-standard residues stand in square brackets, D forms with d. Residues, ends and D or L forms follow the SMILES beside them. Tyr(3-NO2) = N[C@@H](Cc1ccc(O)c([N+](=O)[O-])c1)C(=O)O; 2Abz = Nc1ccccc1C(=O)O
readoutType: Km (µM)

[
  {
    "compound": "NC(=O)[C@H](Cc1ccc(O)c([N+](=O)[O-])c1)NC(=O)[C@@H]1CCCN1C(=O)[C@@H]1CCCN1C(=O)CNC(=O)c1ccccc1N (H-[2Abz]GPP[Tyr(3-NO2)]-NH2)",
    "readoutUnit": "µM",
    "Km": 5.15
  },
  {
    "compound": "C[C@@H](O)[C@H](NC(=O)CNC(=O)c1ccccc1N)C(=O)NCC(=O)N[C@@H](CC(N)=O)C(=O)N[C@@H](Cc1ccc(O)c([N+](=O)[O-])c1)C(N)=O (H-[2Abz]GTGN[Tyr(3-NO2)]-NH2)",
    "readoutUnit": "µM",
    "Km": 3.05
  }
]

1: C[C@H](NC(=O)c1ccccc1N)C(=O)N1CCC[C@H]1C(=O)N[C@@H](CS)C(=O)N[C@@H](CC(N)=O)C(=O)N[C@@H](Cc1ccc(O)c([N+](=O)[O-])c1)C(N)=O (H-[2Abz]APCN[Tyr(3-NO2)]-NH2)
2: CSCC[C@H](NC(=O)[C@H](C)NC(=O)[C@H](C)NC(=O)[C@H](CO)NC(=O)c1ccccc1N)C(=O)N[C@@H](Cc1ccc(O)c([N+](=O)[O-])c1)C(N)=O (H-[2Abz]SAAM[Tyr(3-NO2)]-NH2)
3: NC(=O)[C@H](Cc1ccc(O)c([N+](=O)[O-])c1)NC(=O)[C@H](CS)NC(=O)[C@@H]1CCCN1C(=O)[C@H](CC(=O)O)NC(=O)CNC(=O)c1ccccc1N (H-[2Abz]GDPC[Tyr(3-NO2)]-NH2)
Query: Place the items in sequence of falling Km. # list labels per requested ordering
Result: 3, 1, 2
(3: 13.2 µM, 1: 5.41 µM, 2: 3.33 µM)

a: C[C@H](NC(=O)CNC(=O)c1ccccc1N)C(=O)N[C@H](C(=O)N[C@@H](Cc1cnc[nH]1)C(=O)N[C@@H](Cc1ccc(O)c([N+](=O)[O-])c1)C(N)=O)[C@@H](C)O (H-[2Abz]GATH[Tyr(3-NO2)]-NH2)
b: NC(=O)C[C@H](NC(=O)[C@H](Cc1cnc[nH]1)NC(=O)c1ccccc1N)C(=O)N[C@@H](CS)C(=O)N[C@@H](CS)C(=O)N[C@@H](Cc1ccc(O)c([N+](=O)[O-])c1)C(N)=O (H-[2Abz]HNCC[Tyr(3-NO2)]-NH2)
Query: # compare Km for a vs b ; return the one with the smaller value Kindly give the label for the entry you pick.
Result: a
(a: 4.66 µM, b: 8.81 µM)

P: C[C@H](NC(=O)c1ccccc1N)C(=O)N[C@@H](Cc1cnc[nH]1)C(=O)N[C@@H](CO)C(=O)N[C@@H](CS)C(=O)N[C@@H](Cc1ccc(O)c([N+](=O)[O-])c1)C(N)=O (H-[2Abz]AHSC[Tyr(3-NO2)]-NH2)
Q: NC(=O)[C@H](Cc1ccc(O)c([N+](=O)[O-])c1)NC(=O)[C@H](CC(=O)O)NC(=O)[C@H](CS)NC(=O)[C@H](Cc1cnc[nH]1)NC(=O)[C@H](CO)NC(=O)c1ccccc1N (H-[2Abz]SHCD[Tyr(3-NO2)]-NH2)
Query: // which entry reports the smaller Km, P or Q ? Refer to your chosen item by its label in the answer.
Result: P
(P: 5.63 µM, Q: 11.4 µM)

Where do the numbers come from? From ChEMBL document CHEMBL1152244.
